Provide the reported Ki of each item.
# Subject Of Test: human µ opioid receptor (human), P35372
# Sequence (P35372 whole entry): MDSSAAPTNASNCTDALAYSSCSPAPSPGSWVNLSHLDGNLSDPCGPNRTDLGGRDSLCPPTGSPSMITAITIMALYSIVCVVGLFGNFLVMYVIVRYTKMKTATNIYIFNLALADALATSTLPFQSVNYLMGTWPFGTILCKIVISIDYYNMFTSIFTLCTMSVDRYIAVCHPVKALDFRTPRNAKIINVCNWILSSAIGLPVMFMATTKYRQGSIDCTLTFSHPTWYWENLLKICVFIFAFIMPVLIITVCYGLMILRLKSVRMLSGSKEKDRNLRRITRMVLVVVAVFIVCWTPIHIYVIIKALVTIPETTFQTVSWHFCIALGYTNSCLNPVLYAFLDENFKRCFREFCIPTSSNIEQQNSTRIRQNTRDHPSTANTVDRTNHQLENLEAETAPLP
# Experiment Notes: radioligand competition with [3H]naloxone (5 nM), membranes of CHO-K1 cells with recombinant human µ opioid receptor; Ki by Cheng-Prusoff; sample diluted on the day of the assay (unreleased)
Answers are plain numbers, in nM.

>  <Binder>
YAGF (modifications not checked) [Di-CAC-PEG2-FMOC-NHS-20K-biphalin]

>  <Quantity Name>
Ki

>  <Endpoint Result>
1120

$$$$

Value lookup for Ki; key = YAGF (modifications not checked) [Di-C2-PEG2-FMOC-NHS-20K-biphalin] 21.7
